Assay: Tolerability in Sprague-Dawley rats: hematology assays (Example 23)
Type: in vivo
Set-up: unit not given here
Conditions: blood
In the oligonucleotide strings, read from the 5' end, every base follows the letter of its sugar. An asterisk marks phosphorothioate; unmarked linkages are phosphodiester. Other units and linkages are bracketed, terminal groups are in braces. A string of capitals states the bases alone. e = 2'-O-(2-methoxyethyl) (MOE); [5mC] = 5-methylcytosine; d = 2'-deoxy (DNA)
Reported endpoint: WBC

INSERT INTO assay_data (substance, reported_endpoint, recorded_result) VALUES
  ('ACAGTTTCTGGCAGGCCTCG (antisense; all C 5-methyl, all phosphorothioate, sugars by position not given here; MOE gapmer, 5-10-5) [ISIS 412223, 5-10-5 MOE gapmer]', 'WBC', 20),
  ('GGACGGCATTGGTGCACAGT (antisense; all C 5-methyl, all phosphorothioate, sugars by position not given here; MOE gapmer, 5-10-5) [ISIS 413482, 5-10-5 MOE gapmer]', 'WBC', 13),
  ('ISIS 416856: gapmer of Table 8 (antisense eG*eG*e[5mC]*eA*eT*dT*dG*dG*dT*dG*d[5mC]*dA*d[5mC]*dA*dG*eT*eT*eT*e[5mC]*eT)', 'WBC', 19),
  ('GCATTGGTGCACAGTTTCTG (antisense; all C 5-methyl, all phosphorothioate, sugars by position not given here; MOE gapmer, 5-10-5) [ISIS 412224, 5-10-5 MOE gapmer]', 'WBC', 20),
  ('ISIS 416863: gapmer of Table 8 (antisense e[5mC]*eA*eG*e[5mC]*eG*dG*dA*d[5mC]*dG*dG*d[5mC]*dA*dT*dT*dG*eG*eT*eG*e[5mC]*eA)', 'WBC', 17),
  ('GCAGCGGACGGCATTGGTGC (antisense; all C 5-methyl, all phosphorothioate, sugars by position not given here; MOE gapmer, 5-10-5) [ISIS 412225, 5-10-5 MOE gapmer]', 'WBC', 15),
  ('ISIS 416867: gapmer of Table 8 (antisense eA*e[5mC]*eT*eG*eG*d[5mC]*dA*dG*d[5mC]*dG*dG*dA*d[5mC]*dG*dG*e[5mC]*eA*eT*eT*eG)', 'WBC', 14),
  ('ISIS 416866: gapmer of Table 8 (antisense e[5mC]*eT*eG*eG*e[5mC]*dA*dG*d[5mC]*dG*dG*dA*d[5mC]*dG*dG*d[5mC]*eA*eT*eT*eG*eG)', 'WBC', 20),
  ('ISIS 416848: gapmer of Table 8 (antisense e[5mC]*eA*e[5mC]*eA*eG*dT*dT*dT*d[5mC]*dT*dG*dG*d[5mC]*dA*dG*eG*e[5mC]*e[5mC]*eT*e[5mC])', 'WBC', 17),
  ('ISIS 416860: gapmer of Table 8 (antisense e[5mC]*eG*eG*eA*e[5mC]*dG*dG*d[5mC]*dA*dT*dT*dG*dG*dT*dG*e[5mC]*eA*e[5mC]*eA*eG)', 'WBC', 17);

* * *

Test system: Factor XI protein
Experiment: Cynomolgus monkeys: plasma Factor XI protein ELISA (Example 30)
Type: in vivo
Settings: 25 mg/kg s.c.; plasma ELISA; Day −14
In the oligonucleotide strings, read from the 5' end, every base follows the letter of its sugar. An asterisk marks phosphorothioate; unmarked linkages are phosphodiester. Other units and linkages are bracketed, terminal groups are in braces. A string of capitals states the bases alone. e = 2'-O-(2-methoxyethyl) (MOE); [5mC] = 5-methylcytosine; d = 2'-deoxy (DNA)
Below: a set of entries, each annotated with reported Inhibition of Factor XI protein relative to the PBS control.
Reported endpoint: Inhibition of Factor XI protein relative to the PBS control (%)

INSERT INTO measurements (substance, recorded_result) VALUES
  ('449708 (antisense eA*e[5mC]*eA*dG*dT*dT*dT*d[5mC]*dT*dG*dG*e[5mC]*eA*eG) [compound 449708]', 1),
  ('449707 (antisense e[5mC]*eA*e[5mC]*eA*dG*dT*dT*dT*d[5mC]*dT*dG*dG*e[5mC]*eA*eG*eG) [compound 449707]', 0),
  ('449710 (antisense e[5mC]*eA*e[5mC]*dA*dG*dT*dT*dT*d[5mC]*dT*dG*dG*d[5mC]*eA*eG*eG) [compound 449710]', 1);

* * *

Below: a set of entries, each annotated with reported percent inhibition of Factor XI mRNA, relative to untreated control cells.
System: human Factor XI mRNA
Assay: Dose-dependent inhibition in HepG2 cells, lipofectin (Example 4)
Type: cell-based
Conditions: 75 nM, 16 hours
In the oligonucleotide strings, read from the 5' end, every base follows the letter of its sugar. An asterisk marks phosphorothioate; unmarked linkages are phosphodiester. Other units and linkages are bracketed, terminal groups are in braces. A string of capitals states the bases alone. e = 2'-O-(2-methoxyethyl) (MOE); [5mC] = 5-methylcytosine; d = 2'-deoxy (DNA)
Reported endpoint: percent inhibition of Factor XI mRNA, relative to untreated control cells (%)

INSERT INTO measurements (substance, unit_abbrev, recorded_result) VALUES
  ('416896 (antisense eT*eT*eA*dT*dG*d[5mC]*d[5mC]*d[5mC]*dT*dT*d[5mC]*dA*dT*dG*dT*d[5mC]*dT*eA*eG*eG) [compound 416896]', '%', 81),
  ('416908 (antisense eG*e[5mC]*eA*dA*d[5mC]*d[5mC]*dG*dG*dG*dA*dT*dG*dA*dT*dG*dA*dG*eT*eG*e[5mC]) [compound 416908]', '%', 76),
  ('412206 (antisense e[5mC]*e[5mC]*eG*eT*eG*d[5mC]*dA*dT*d[5mC]*dT*dT*dT*d[5mC]*dT*dT*eG*eG*e[5mC]*eA*eT) [compound 412206]', '%', 86);

* * *

Test system: human Factor XI mRNA
Assay: Dose-dependent inhibition in cyno primary hepatocytes, electroporation (Example 6)
Format: cell-based, cynomolgus monkey
Conditions: 6.7 nM, approx. 16 h
Reported endpoint: percent inhibition of human Factor XI mRNA

INSERT INTO assay_data (substance, recorded_result) VALUES
  ('417002 (antisense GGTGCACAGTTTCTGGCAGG; 2-13-5 gapmer, wing sugar chemistry not given here, further chemistry not given here) [compound 417002]', '28%'),
  ('416826 (antisense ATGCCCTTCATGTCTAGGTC; 5-10-5 gapmer, wing sugar chemistry not given here, further chemistry not given here) [compound 416826]', '34%'),
  ('416858 (antisense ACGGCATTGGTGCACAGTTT; 5-10-5 gapmer, wing sugar chemistry not given here, further chemistry not given here) [compound 416858]', '22%'),
  ('416864 (antisense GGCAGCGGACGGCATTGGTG; 5-10-5 gapmer, wing sugar chemistry not given here, further chemistry not given here) [compound 416864]', '15%'),
  ('417003 (antisense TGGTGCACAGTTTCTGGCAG; 2-13-5 gapmer, wing sugar chemistry not given here, further chemistry not given here) [compound 417003]', '19%'),
  ('416850 (antisense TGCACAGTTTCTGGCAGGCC; 5-10-5 gapmer, wing sugar chemistry not given here, further chemistry not given here) [compound 416850]', '24%'),
  ('416825 (antisense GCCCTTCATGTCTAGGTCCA; 5-10-5 gapmer, wing sugar chemistry not given here, further chemistry not given here) [compound 416825]', '51%'),
  ('416838 (antisense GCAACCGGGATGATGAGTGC; 5-10-5 gapmer, wing sugar chemistry not given here, further chemistry not given here) [compound 416838]', '21%'),
  ('416999 (antisense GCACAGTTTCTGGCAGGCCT; 2-13-5 gapmer, wing sugar chemistry not given here, further chemistry not given here) [compound 416999]', '36%'),
  ('416892 (antisense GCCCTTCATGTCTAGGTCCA; 3-14-3 chimeric gapmer, wing sugar chemistry not given here, further chemistry not given here) [compound 416892]', '43%'),
  ('416925 (antisense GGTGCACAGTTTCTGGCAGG; 3-14-3 chimeric gapmer, wing sugar chemistry not given here, further chemistry not given here) [compound 416925]', '1%');

* * *

Below: a set of entries, each annotated with reported percent inhibition of Factor XI mRNA, relative to untreated control cells.
Tested on: human Factor XI mRNA
Assay: Dose-dependent inhibition in HepG2 cells, electroporation (Example 4)
Format: cell-based
Settings: 2.2 μM, 16 hours
In the oligonucleotide strings, read from the 5' end, every base follows the letter of its sugar. An asterisk marks phosphorothioate; unmarked linkages are phosphodiester. Other units and linkages are bracketed, terminal groups are in braces. A string of capitals states the bases alone. e = 2'-O-(2-methoxyethyl) (MOE); [5mC] = 5-methylcytosine; d = 2'-deoxy (DNA)
Reported endpoint: percent inhibition of Factor XI mRNA, relative to untreated control cells (%)

INSERT INTO results (substance, recorded_result) VALUES
  ('412206 (antisense e[5mC]*e[5mC]*eG*eT*eG*d[5mC]*dA*dT*d[5mC]*dT*dT*dT*d[5mC]*dT*dT*eG*eG*e[5mC]*eA*eT) [compound 412206]', 39),
  ('417002 (antisense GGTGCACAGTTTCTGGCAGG; 2-13-5 gapmer, wing sugar chemistry not given here, further chemistry not given here) [compound 417002]', 38),
  ('416984 (antisense e[5mC]*eA*dA*d[5mC]*d[5mC]*dG*dG*dG*dA*dT*dG*dA*dT*dG*dA*eG*eT*eG*e[5mC]*eA) [compound 416984]', 54),
  ('412203 (antisense eA*eA*eT*eG*eT*d[5mC]*dT*dT*dT*dG*dT*dT*dG*d[5mC]*dA*eA*eG*e[5mC]*eG*e[5mC]) [compound 412203]', 60),
  ('416856 (antisense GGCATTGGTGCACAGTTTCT; 5-10-5 gapmer, wing sugar chemistry not given here, further chemistry not given here) [compound 416856]', 29),
  ('416858 (antisense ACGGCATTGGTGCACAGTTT; 5-10-5 gapmer, wing sugar chemistry not given here, further chemistry not given here) [compound 416858]', 20),
  ('416972 (antisense eT*eA*dT*dG*d[5mC]*d[5mC]*d[5mC]*dT*dT*d[5mC]*dA*dT*dG*dT*d[5mC]*eT*eA*eG*eG*eT) [compound 416972]', 30),
  ('416945 (antisense eA*eA*dT*dG*dT*d[5mC]*dT*dT*dT*dG*dT*dT*dG*d[5mC]*dA*eA*eG*e[5mC]*eG*e[5mC]) [compound 416945]', 70),
  ('413476 (antisense eT*eT*eG*eA*eG*dA*dT*dT*d[5mC]*dT*dT*dT*dG*dG*dG*e[5mC]*e[5mC]*eA*eT*eT) [compound 413476]', 69),
  ('413474 (antisense eA*eG*e[5mC]*eA*eA*d[5mC]*d[5mC]*dG*dG*dG*dA*dT*dG*dA*dT*eG*eA*eG*eT*eG) [compound 413474]', 5),
  ('416825 (antisense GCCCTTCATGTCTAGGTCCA; 5-10-5 gapmer, wing sugar chemistry not given here, further chemistry not given here) [compound 416825]', 74),
  ('416931 (antisense eG*eG*e[5mC]*dA*dT*dT*dG*dG*dT*dG*d[5mC]*dA*d[5mC]*dA*dG*dT*dT*eT*e[5mC]*eT) [compound 416931]', 24),
  ('416999 (antisense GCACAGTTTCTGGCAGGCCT; 2-13-5 gapmer, wing sugar chemistry not given here, further chemistry not given here) [compound 416999]', 42),
  ('416892 (antisense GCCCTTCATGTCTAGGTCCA; 3-14-3 chimeric gapmer, wing sugar chemistry not given here, further chemistry not given here) [compound 416892]', 52),
  ('416850 (antisense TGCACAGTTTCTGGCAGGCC; 5-10-5 gapmer, wing sugar chemistry not given here, further chemistry not given here) [compound 416850]', 25),
  ('417000 (antisense eT*eG*d[5mC]*dA*d[5mC]*dA*dG*dT*dT*dT*d[5mC]*dT*dG*dG*d[5mC]*eA*eG*eG*e[5mC]*e[5mC]) [compound 417000]', 73),
  ('416864 (antisense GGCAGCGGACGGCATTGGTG; 5-10-5 gapmer, wing sugar chemistry not given here, further chemistry not given here) [compound 416864]', 65),
  ('416985 (antisense eG*e[5mC]*dA*dA*d[5mC]*d[5mC]*dG*dG*dG*dA*dT*dG*dA*dT*dG*eA*eG*eT*eG*e[5mC]) [compound 416985]', 48),
  ('416896 (antisense eT*eT*eA*dT*dG*d[5mC]*d[5mC]*d[5mC]*dT*dT*d[5mC]*dA*dT*dG*dT*d[5mC]*dT*eA*eG*eG) [compound 416896]', 35),
  ('416973 (antisense eT*eT*dA*dT*dG*d[5mC]*d[5mC]*d[5mC]*dT*dT*d[5mC]*dA*dT*dG*dT*e[5mC]*eT*eA*eG*eG) [compound 416973]', 48);
